Data origin: PubChem BioAssay AID1963972

tested on: 945468-187-T-J2-PDC spheroids viability; test: Anticancer human tumor 945468-187-T-J2-PDC patient-derived rectal carcinoma cell line growth inhibition [PI3K]; conditions: curve of first compound; second compound 0.0316 µM; spheroids with HUVEC and MSC
pIC50: −log10 of the molar value.
Catalogue of pIC50 readings, one per entry.

Worked cases, answers included:
CC1(C)CCC(CN2CCN(c3ccc(C(=O)NS(=O)(=O)c4ccc(NCC5CCOCC5)c([N+](=O)[O-])c4)c(Oc4cnc5[nH]ccc5c4)c3)CC2)=C(c2ccc(Cl)cc2)C1 + CC(Nc1ncnc2nc[nH]c12)c1cc2cccc(Cl)c2c(=O)n1-c1ccccc1
< 5.00
Cn1nccc1Nc1nccc(-c2ccn(C(CO)c3ccc(Cl)c(F)c3)c(=O)c2)n1 (centres undefined) + COc1c(OCCCN2CCOCC2)ccc2c3n(c(=NC(=O)c4cnc(N)nc4)nc12)CCN3
< 5.00
CC(Cn1ccc(-c2ccc(C#N)c(Cl)c2)n1)NC(=O)c1cc(C(C)O)[nH]n1 (centres undefined) + Cc1nc(NC(=O)N2CCCC2C(N)=O)sc1-c1ccnc(C(C)(C)C(F)(F)F)c1
< 5.00
C=CC(=O)N1CCN(c2nc(=O)n(-c3c(C)ccnc3C(C)C)c3nc(-c4c(O)cccc4F)c(F)cc23)C(C)C1 (centres undefined) + CC(Nc1ccc2c(c1)OCCn1cc(N3C(=O)OCC3C(F)F)nc1-2)C(N)=O
< 5.00
CC(Cn1ccc(-c2ccc(C#N)c(Cl)c2)n1)NC(=O)c1cc(C(C)O)[nH]n1 (centres undefined) + COc1c(OCCCN2CCOCC2)ccc2c3n(c(=NC(=O)c4cnc(N)nc4)nc12)CCN3
< 5.00

From here, focus on the item given below.
Summary: Cn1nccc1Nc1nccc(-c2ccn(C(CO)c3ccc(Cl)c(F)c3)c(=O)c2)n1 (centres undefined) + Cc1nc(NC(=O)N2CCCC2C(N)=O)sc1-c1ccnc(C(C)(C)C(F)(F)F)c1 , 945468-187-T-J2-PDC spheroids viability, pIC50 = < 5.00

* * *

system: 945468-187-T-J2-PDC spheroids viability; experiment: Anticancer human tumor 945468-187-T-J2-PDC cell line growth inhibition [PI3K]; settings: second compound 10 µM; first compound 1 µM; stronger effect = lower value; spheroids with HUVEC and MSC;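 also: spheroids exposed to compounds for seven days before reading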
Rule: measured viability, T/C below 80% gets criterion met; anything equal to or greater than 80% gets criterion not met.

Answered examples (4):
C[C@@H](NC(=O)c1ncnc(N)c1Cl)c1ncc(C(=O)Nc2cc(C(F)(F)F)c(Cl)cn2)s1 + CC(Nc1ncnc2nc[nH]c12)c1cc2cccc(Cl)c2c(=O)n1-c1ccccc1
criterion not met
CC1(C)CCC(Nc2ncc(C(F)(F)F)c(-c3c[nH]c4c(P(C)(C)=O)c(C#N)ccc34)n2)CN1 (stereo not given) + CC(Nc1ncnc2nc[nH]c12)c1cc2cccc(Cl)c2c(=O)n1-c1ccccc1
criterion met
CC1(C)CCC(CN2CCN(c3ccc(C(=O)NS(=O)(=O)c4ccc(NCC5CCOCC5)c([N+](=O)[O-])c4)c(Oc4cnc5[nH]ccc5c4)c3)CC2)=C(c2ccc(Cl)cc2)C1 + Cc1nc(NC(=O)N2CCCC2C(N)=O)sc1-c1ccnc(C(C)(C)C(F)(F)F)c1
criterion met
Cn1nccc1Nc1nccc(-c2ccn(C(CO)c3ccc(Cl)c(F)c3)c(=O)c2)n1 (stereo not given) + CC(Nc1ncnc2nc[nH]c12)c1cc2cccc(Cl)c2c(=O)n1-c1ccccc1
criterion not met

Now, please, on to the next compound.
I wonder whether CC(Cn1ccc(-c2ccc(C#N)c(Cl)c2)n1)NC(=O)c1cc(C(C)O)[nH]n1 (stereo not given) + CC(Nc1ncnc2nc[nH]c12)c1cc2cccc(Cl)c2c(=O)n1-c1ccccc1 has viability, T/C below 80%. Can you tell?
criterion not met
